biological target: PIK3CD (Human); test: Enzyme Assay
Provide the reported IC50 of each item.

// IC50 value for `C[C@H](NC(=O)c1nc(-c2cccc(NS(=O)(=O)N(C)C)c2)cnc1N)c1cc2cccc(Cl)c2c(=O)n1-c1ccccc1` : 100 to 1000 nM

// sample `C[C@H](NC(=O)c1c(N)nn2cccnc12)c1cc2cccc(O)c2c(=O)n1-c1ccccc1` , its IC50 was ≥ 10000 nM

Record `C[C@H](NC(=O)c1c(N)nn2cccnc12)c1cc2cccc(-c3cncc(NS(C)(=O)=O)c3)c2c(=O)n1-c1ccccc1` , field IC50: 100 to 1000 nM

For reference, reported IC50 for C[C@H](NC(=O)c1c(N)nn2cccnc12)c1cc2cccc(Cl)c2c(=O)n1CC(O)CO (stereo partly drawn) stands at 100 to 1000 nM

Notebook: `CC(=O)Nc1ncc(-c2cccc(NS(C)(=O)=O)c2)nc1C(=O)N[C@@H](C)c1cc2cccc(Cl)c2c(=O)n1C` , IC50 read as ≥ 10000 nM

response.value for `C[C@H](NC(=O)c1nc(-c2cccc(S(C)(=O)=O)c2)c(N)nc1N)c1cc2cccc(Cl)c2c(=O)n1-c1ccccc1` (field: IC50) = 100 to 1000 nM

Value of measured IC50 for the entry `C[C@H](NC(=O)c1nc(-c2cccc(NS(C)(=O)=O)c2)cnc1N)c1cc2cccc(Cl)c2c(=O)n1C` : 100 to 1000 nM

IC50 recorded for this compound, `C[C@H](NC(=O)c1nc(-c2cccc(S(=O)(=O)NC3CC3)c2)cnc1N)c1cc2cccc(Cl)c2c(=O)n1C` , is 100 to 1000 nM

For this compound ( `COc1cc(-c2cccc3cc([C@H](C)NC(=O)c4c(N)nn5cccnc45)n(C4CCCCC4)c(=O)c23)ccn1` ), measured IC50 is ≥ 10000 nM

Form field IC50, entry `C[C@H](NC(=O)c1c(N)nn2cccnc12)c1c(Br)c2cccc(Cl)c2c(=O)n1-c1ccccc1` : 100 to 1000 nM

Please fill in: IC50 reported for `CNc1cccc2cc([C@H](C)NC(=O)c3c(N)nn4cccnc34)n(-c3ccccc3)c(=O)c12` = ≥ 10000 nM

compound `CC(=O)N(C)Cc1cccc2cc([C@H](C)NC(=O)c3c(N)nn4cccnc34)n(-c3ccccc3)c(=O)c12` , IC50 observed: < 100 nM

The reported value for `C[C@H](NC(=O)c1cc(-c2cccc(NS(C)(=O)=O)c2)cnc1N)c1cc2cccc(Cl)c2c(=O)n1-c1ccccc1` in terms of IC50 is ≥ 10000 nM

----------
target: PIK3CD (Human) (UniProt O00329); experiment: Cell-Based Assay; settings: raji
Sequence (O00329 whole entry, looked up): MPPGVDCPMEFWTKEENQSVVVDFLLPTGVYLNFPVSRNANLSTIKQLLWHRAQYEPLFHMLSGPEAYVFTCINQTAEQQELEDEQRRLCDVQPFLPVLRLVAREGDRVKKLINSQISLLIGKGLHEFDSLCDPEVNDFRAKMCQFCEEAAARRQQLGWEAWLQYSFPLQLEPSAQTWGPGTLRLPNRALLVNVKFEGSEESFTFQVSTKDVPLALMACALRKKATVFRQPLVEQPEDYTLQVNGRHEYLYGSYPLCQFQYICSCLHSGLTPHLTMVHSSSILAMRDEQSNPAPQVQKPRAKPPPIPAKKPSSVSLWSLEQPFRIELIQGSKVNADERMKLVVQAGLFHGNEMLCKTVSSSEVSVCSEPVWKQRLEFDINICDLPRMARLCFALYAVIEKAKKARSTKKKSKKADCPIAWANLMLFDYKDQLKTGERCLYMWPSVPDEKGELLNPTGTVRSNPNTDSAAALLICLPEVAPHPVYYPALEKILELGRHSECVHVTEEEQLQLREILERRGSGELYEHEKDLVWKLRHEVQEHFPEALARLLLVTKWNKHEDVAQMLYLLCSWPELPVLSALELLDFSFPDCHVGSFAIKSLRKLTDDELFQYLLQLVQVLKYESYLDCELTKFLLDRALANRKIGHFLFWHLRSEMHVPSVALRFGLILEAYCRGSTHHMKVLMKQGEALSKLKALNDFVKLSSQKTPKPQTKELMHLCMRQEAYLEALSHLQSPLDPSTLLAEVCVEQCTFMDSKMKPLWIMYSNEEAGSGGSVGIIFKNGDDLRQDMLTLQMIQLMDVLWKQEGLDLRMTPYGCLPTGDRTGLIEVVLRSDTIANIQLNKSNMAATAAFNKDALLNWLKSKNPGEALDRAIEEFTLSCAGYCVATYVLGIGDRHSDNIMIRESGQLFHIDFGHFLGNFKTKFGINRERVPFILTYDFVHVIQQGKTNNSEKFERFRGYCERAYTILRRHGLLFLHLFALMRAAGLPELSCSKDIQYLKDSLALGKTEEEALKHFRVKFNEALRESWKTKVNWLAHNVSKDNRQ
Record form. Attribute: IC50. Fill in for each entry.

Looking up `C[C@H](NC(=O)c1nc(-c2cccc(NS(C)(=O)=O)c2)cnc1N)c1cc2cccc(Cl)c2c(=O)n1-c1ccccc1` , I see its IC50 listed as < 0.1 µM

// `CC(C)Oc1ccc(-c2cnc(N)c(C(=O)N[C@@H](C)c3cc4cccc(Cl)c4c(=O)n3-c3ccccc3)n2)cn1` : IC50 value = 0.1 to 1 µM

Reported IC50 for `C[C@H](NC(=O)c1c(N)nn2cccnc12)c1cc2cccc(Cl)c2c(=O)n1-c1ccc(F)cc1` was < 0.1 µM

# molecule `C[C@H](NC(=O)c1c(N)nn2cccnc12)c1cc2cccc(-c3ccc(=O)n(C)c3)c2c(=O)n1-c1ccccc1` ; its IC50 = < 0.1 µM

So for `C[C@H](NC(=O)c1nc(-c2ccccc2)cnc1N)c1cc2cccc(Cl)c2c(=O)n1-c1ccccc1` , the logged IC50 turned out to be 0.1 to 1 µM

Documented IC50 of `C#Cc1cccc2cc([C@H](C)NC(=O)c3c(N)nn4cccnc34)n(-c3ccccc3)c(=O)c12` : < 0.1 µM

Data point: `C[C@H](NC(=O)c1nc(-c2cccc(O)c2)cnc1N)c1cc2cccc(Cl)c2c(=O)n1-c1ccccc1` ; IC50 = 0.1 to 1 µM

IC50 in this record for `C[C@H](NC(=O)c1c(N)nn2cccnc12)c1cc2sccc2c(=O)n1-c1ccccc1` : 0.1 to 1 µM

Consider `C=CC(=O)NCC#Cc1cccc2cc([C@H](C)NC(=O)c3c(N)nn4cccnc34)n(-c3ccccc3)c(=O)c12` . Its measured IC50 is < 0.1 µM

Recorded IC50 (molecule `CC(C)NS(=O)(=O)c1cccc(-c2cnc(N)c(C(=O)N[C@@H](C)c3cc4cccc(Cl)c4c(=O)n3-c3ccccc3)n2)c1` ): < 0.1 µM

IC50 measured on `C[C@H](NC(=O)c1nc(-c2cccc(NS(C)(=O)=O)c2)cnc1N)c1cc2cccc(Cl)c2c(=O)n1C` = < 0.1 µM

The reported value for `C[C@H](NC(=O)c1nccnc1N)c1cc2cccc(-c3cc[nH]n3)c2c(=O)n1-c1ccccc1` in terms of IC50 is < 0.1 µM

Reported IC50 for `C[C@H](NC(=O)c1c(N)nn2cccnc12)c1cc2cccc(-c3cccs3)c2c(=O)n1-c1ccccc1` was 0.1 to 1 µM

Recorded result, `COc1ccc(-c2cnc(N)c(C(=O)N[C@@H](C)c3cc4cccc(Cl)c4c(=O)n3-c3ccccc3)n2)cc1NS(C)(=O)=O` , IC50: < 0.1 µM

IC50 in this record for `C[C@H](NC(=O)c1c(N)nn2cccnc12)c1cc2ccccc2c(=O)n1-c1ccccc1` : 0.1 to 1 µM

So for `C=CC(=O)NCCC#Cc1cccc2cc([C@H](C)NC(=O)c3c(N)nn4cccnc34)n(-c3ccccc3)c(=O)c12` , the logged IC50 turned out to be < 0.1 µM
